- target_system: UniProt P17948
- Sequence (P17948 whole entry): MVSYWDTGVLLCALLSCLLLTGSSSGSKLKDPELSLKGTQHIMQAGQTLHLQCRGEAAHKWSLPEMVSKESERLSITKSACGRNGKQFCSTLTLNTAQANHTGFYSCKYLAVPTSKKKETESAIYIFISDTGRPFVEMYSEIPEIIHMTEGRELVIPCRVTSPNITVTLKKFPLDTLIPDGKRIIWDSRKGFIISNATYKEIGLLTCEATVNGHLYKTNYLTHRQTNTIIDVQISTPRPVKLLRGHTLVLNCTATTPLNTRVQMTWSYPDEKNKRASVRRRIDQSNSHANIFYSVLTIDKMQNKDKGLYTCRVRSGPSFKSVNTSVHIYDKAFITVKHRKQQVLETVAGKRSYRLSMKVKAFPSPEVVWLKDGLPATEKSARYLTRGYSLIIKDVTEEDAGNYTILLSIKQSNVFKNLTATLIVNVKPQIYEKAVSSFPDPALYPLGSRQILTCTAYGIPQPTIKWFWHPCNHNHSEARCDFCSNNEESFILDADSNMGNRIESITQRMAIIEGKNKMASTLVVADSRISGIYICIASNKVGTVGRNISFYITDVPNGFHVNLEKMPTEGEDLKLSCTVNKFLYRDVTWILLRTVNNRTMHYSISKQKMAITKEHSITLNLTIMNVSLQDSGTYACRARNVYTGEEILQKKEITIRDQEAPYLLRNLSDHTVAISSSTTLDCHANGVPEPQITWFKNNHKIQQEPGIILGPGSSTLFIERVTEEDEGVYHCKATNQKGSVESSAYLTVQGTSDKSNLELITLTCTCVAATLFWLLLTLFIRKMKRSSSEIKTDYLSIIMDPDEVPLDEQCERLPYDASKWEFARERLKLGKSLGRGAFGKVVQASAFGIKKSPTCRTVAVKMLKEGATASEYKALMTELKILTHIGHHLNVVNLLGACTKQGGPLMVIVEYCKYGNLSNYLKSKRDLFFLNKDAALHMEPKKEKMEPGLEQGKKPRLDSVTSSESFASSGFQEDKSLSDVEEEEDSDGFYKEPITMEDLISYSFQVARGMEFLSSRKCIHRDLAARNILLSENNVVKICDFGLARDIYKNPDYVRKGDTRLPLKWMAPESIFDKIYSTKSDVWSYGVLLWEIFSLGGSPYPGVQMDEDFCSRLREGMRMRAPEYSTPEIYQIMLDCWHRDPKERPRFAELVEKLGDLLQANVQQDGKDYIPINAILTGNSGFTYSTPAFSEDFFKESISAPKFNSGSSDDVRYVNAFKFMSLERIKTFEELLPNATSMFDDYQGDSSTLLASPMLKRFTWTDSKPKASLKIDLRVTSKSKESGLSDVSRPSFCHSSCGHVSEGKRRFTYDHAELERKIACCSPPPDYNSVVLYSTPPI
- measurement_description: biochemical
- Type: cell-based, HUVEC
- assay_conditions: huvec

compound	target_system	IC50
COC(=O)Nc1nc2ccc([S+]([O-])c3ccccc3)cc2[nH]1 (stereo unspecified)	UniProt P17948	Not Active
CN(C)CCOC(c1ccccc1)c1ccccc1 [DIPHENHYDRAMINE]	UniProt P17948	Not Active
CC(=O)[C@H]1[C@H](C#N)C[C@H]2[C@@H]3CC=C4C[C@@H](O)CC[C@]4(C)[C@H]3CC[C@@]21C	UniProt P17948	Not Active
CN(C)[C@@H]1C(O)=C(C(N)=O)C(=O)[C@@]2(O)C(O)=C3C(=O)c4c(O)ccc(Cl)c4[C@@](C)(O)[C@H]3C[C@@H]12	UniProt P17948	Not Active
CC(C)(C)NC(=O)[C@H]1CC[C@H]2[C@@H]3CC[C@H]4NC(=O)C=C[C@]4(C)[C@H]3CC[C@]12C [FINASTERIDE]	UniProt P17948	Not Active
CO[C@H]1/C=C/O[C@@]2(C)Oc3c(C)c(O)c4c(O)c(c(/C=N/N5CCN(C6CCCC6)CC5)c(O)c4c3C2=O)NC(=O)/C(C)=C\C=C\[C@H](C)[C@H](O)[C@@H](C)[C@@H](O)[C@@H](C)[C@H](OC(C)=O)[C@@H]1C	UniProt P17948	Not Active

###

- measurement_description: DRUGMATRIX: Glutamate, NMDA, Phencyclidine radioligand binding (ligand: [3H] TCP)
- Assay type: cell membranes, Rattus norvegicus, Wistar, Cerebral cortex, Membrane
- assay_conditions: Not Active = under 50% inhibition at 10 µM

compound	IC50
NCCCC(O)(P(=O)(O)O)P(=O)(O)O	Not Active
N=C(N)NC(=O)Cc1c(Cl)cccc1Cl	Not Active
Oc1c(Cl)cc(Cl)c(Cl)c1Cc1c(O)c(Cl)cc(Cl)c1Cl	Not Active
COc1ccc2[nH]cc(CCNC(C)=O)c2c1	Not Active
CCN(CC)CCNC(=O)c1cc(S(C)(=O)=O)ccc1OC [TIAPRIDE]	Not Active
Nc1ccn([C@@H]2O[C@H](CO)[C@@H](O)[C@@H]2O)c(=O)n1	Not Active
CC(C)c1cccc(C(C)C)c1O	Not Active
C[C@@H]1C[C@H]2[C@@H]3CCC4=CC(=O)C=C[C@]4(C)[C@@]3(F)[C@@H](O)C[C@]2(C)[C@@]1(O)C(=O)CO	Not Active
COc1ccc2c3c1O[C@H]1C[C@@H](O)C=C[C@@]31CCN(C)C2	Not Active

###

- target_system: Cannabinoid receptor 1 (Homo sapiens, UniProt P21554); also: in other assays of this panel Not Active means under 50% inhibition at 10 µM
- Sequence (P21554 whole entry): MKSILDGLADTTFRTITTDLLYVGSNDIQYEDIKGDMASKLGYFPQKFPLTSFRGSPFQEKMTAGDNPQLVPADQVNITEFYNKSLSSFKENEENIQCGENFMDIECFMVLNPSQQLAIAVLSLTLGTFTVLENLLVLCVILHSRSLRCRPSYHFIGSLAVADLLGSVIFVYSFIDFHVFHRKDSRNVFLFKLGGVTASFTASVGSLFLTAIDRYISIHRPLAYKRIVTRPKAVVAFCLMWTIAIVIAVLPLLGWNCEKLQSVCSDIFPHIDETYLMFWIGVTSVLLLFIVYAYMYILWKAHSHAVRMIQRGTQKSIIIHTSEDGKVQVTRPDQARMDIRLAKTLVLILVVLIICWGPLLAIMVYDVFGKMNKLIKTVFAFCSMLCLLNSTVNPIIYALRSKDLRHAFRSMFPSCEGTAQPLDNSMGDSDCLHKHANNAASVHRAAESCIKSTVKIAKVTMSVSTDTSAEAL
- Format: cell membranes, Chem-1, Membrane
- assay_conditions: read-out: Ki
pKi: −log10 of the molar value.
quantity_name: pKi

molecule	assay_value
Fc1ccc(C(c2ccc(F)cc2)N2CCN(C/C=C/c3ccccc3)CC2)cc1 [FLUNARIZINE]	5.62

###

- target_system: Vasopressin V1a receptor (Homo sapiens, UniProt P37288); also: in other assays of this panel Not Active means under 50% inhibition at 10 µM
- Sequence (P37288 whole entry): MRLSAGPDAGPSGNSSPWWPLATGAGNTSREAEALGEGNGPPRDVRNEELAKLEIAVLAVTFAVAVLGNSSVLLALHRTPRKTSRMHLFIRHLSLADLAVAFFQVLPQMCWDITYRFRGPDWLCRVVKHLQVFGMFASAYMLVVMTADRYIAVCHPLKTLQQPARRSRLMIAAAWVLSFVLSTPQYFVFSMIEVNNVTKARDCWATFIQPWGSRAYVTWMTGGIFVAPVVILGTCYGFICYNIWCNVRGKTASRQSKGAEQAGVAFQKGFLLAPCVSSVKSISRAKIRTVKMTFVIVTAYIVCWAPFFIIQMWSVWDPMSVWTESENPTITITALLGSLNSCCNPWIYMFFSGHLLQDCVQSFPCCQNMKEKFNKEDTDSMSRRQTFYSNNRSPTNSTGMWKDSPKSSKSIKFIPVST
- Assay type: cell membranes, Membrane
- assay_conditions: hek293

molecule	IC50
NC1CCN(c2nc3c(cc2F)c(=O)c(C(=O)O)cn3-c2ccc(F)cc2F)C1 (configuration not stated)	Not Active
CC(C)Oc1ccc2c(=O)c(-c3ccccc3)coc2c1	Not Active
COc1ccc(CCN(C)CCCC(C#N)(c2ccc(OC)c(OC)c2)C(C)C)cc1OC (configuration not stated)	Not Active
COC(=O)Nc1nc2ccc([S+]([O-])c3ccccc3)cc2[nH]1 (configuration not stated)	Not Active
CNC1(c2ccccc2Cl)CCCCC1=O (configuration not stated)	Not Active
CS(=O)(=O)c1ccc([C@@H](O)[C@@H](CO)NC(=O)C(Cl)Cl)cc1	Not Active
CC[C@@H](C(=O)[C@@H](C)[C@@H](O)[C@H](C)[C@@H]1O[C@@H]([C@@H](CC)C(=O)O)CC[C@@H]1C)[C@H]1O[C@]2(C=C[C@@H](O)[C@]3(CC[C@@](C)([C@H]4CC[C@](O)(CC)[C@H](C)O4)O3)O2)[C@H](C)C[C@@H]1C	Not Active

Source of measurements: ChEMBL document CHEMBL1909046
